Origin of measurements: PubChem BioAssay (NCI)

# Tested on: RPMI-8226 leukemia
# ASSAY DETAILS: NCI tumour cell line growth inhibition, 48 h
Kindly state TGI for each of the entries shown.
Numbers only, in µM.

Look over these answered cases.
• COC(=O)C1(Cc2ccccc2)Cc2c(C)ccc(C)c2C1=O (configuration not stated) = 75.4
• Cn1c(SCc2c[nH]c3ccccc23)nnc1-c1ccc(Cl)cc1Cl = 27.1
• O=S(=O)(Cc1ccccc1)SCc1ccccc1 = 61.6
• O=S(=O)(/N=C(\NO)Nc1ccc(Cl)cc1)c1cc(S(=O)(=O)c2ccccc2)cs1 = 44.8
• O=c1c2ccccc2n2cnc3ccc(NCCNCCO)c1c32 = 17

Would you be so kind as to report TGI for each listed record?
1. C=C1C(=O)O[C@@H]2[C@H]1C[C@H](I)[C@@]1(C)CC[C@H](O1)[C@](C)(I)CCCC(C)[C@@H]2O (some centres not stated)
2. CC(=O)Oc1ccc(/C=C/C(=O)NCCOC(=O)/C=C/c2ccc(OC(C)=O)c(OC(C)=O)c2)cc1OC(C)=O
3. Nc1n[nH]c2ccc([C@@H]3Nc4c(F)cc5[nH]ncc5c4[C@H]4C5CCC(C5)[C@@H]34)cc12 (some centres not stated)
4. CC1=NN(c2nc(N)nc(/C=C\c3ccccc3)n2)C(C)(C)C1

[9.3, 90.5, 24.6, 15]

TGI measured on COc1ccc2c(C(=O)c3c(C)n(CCN4CCOCC4)c4ccccc34)cccc2c1 = 83.6

----------
Kindly state TGI for each of the entries shown.
# Tested on: SK-OV-3 ovarian
# ASSAY DETAILS: NCI tumour cell line growth inhibition, 48 h

* COCCOCCOCCC(=O)NC1CC2CCC1(C)C2(C)C (stereo unspecified) | > 100 µM

Would you be so kind as to report TGI for each listed record?
1. CN(c1ccc(NC(=O)NCCN2CCOCC2)cc1)c1ccnc(Nc2ccc(CS(C)(=O)=O)cc2)n1
2. N/C(=N\N=C/c1cc([N+](=O)[O-])cc([N+](=O)[O-])c1O)NO
3. NC(=O)C(=O)Cc1nc2ccccc2s1
4. Cc1cn2c(/C=C3/C(=O)Nc4ccc(C(=O)O)cc43)c(C)nc2s1
5. Cc1c(C)c2ccc(OC(C)C(=O)O)cc2oc1=O (stereo unspecified)
6. O=S(=O)(Cc1ccccc1)SCc1ccccc1
7. O=C(O)c1ccccc1CC(Cc1ccccc1)C(=O)O (stereo unspecified)

["> 25 µM", "> 100 µM", "> 100 µM", "> 100 µM", "> 100 µM", "97.3 µM", "> 100 µM"]

Would you be so kind as to report TGI for each listed record?
1. NC(N)=N/N=C/c1c(-c2ccc(Cl)cc2)nc2sc(Cl)cn12
2. O=C(Nc1ccc(Cl)c(C(F)(F)F)c1)C(=O)c1c(O)c2ccccc2oc1=O
3. Brc1ccc(-c2nc(-c3ccc(Br)cc3)n(-c3ccccc3)n2)cc1

3.34 µM
> 100 µM
> 100 µM

----------
# Test system: MDA-MB-231 breast
# ASSAY DETAILS: NCI tumour cell line growth inhibition, 48 h
ENDPOINT LABEL: TGI (µM)
Answers are plain numbers, in µM.

Look over these answered cases.
* CN(CCCNC(=O)c1c2ccc3ccccc3c2nn1C)CCCNC(=O)c1c2ccc3ccccc3c2nn1C | 25.8
* Cc1ccc(NC(=O)c2ccc(NC3=C(Cl)C(=O)N(Cc4ccccc4)C3=O)cc2)cc1Cl | 11.9

The reported TGI value, MDA-MB-231 breast, for N#Cc1c(N)nc2n[nH]c(N)c2c1-c1ccccc1 reads 38.7

----------
# Test system: LOX IMVI melanoma
# ASSAY DETAILS: NCI tumour cell line growth inhibition, 48 h
ENDPOINT LABEL: GI50

Look over these answered cases.
• CC1(C)N=C(N)N=C(N)N1c1ccc(OCCCCNC(=O)Nc2cccc(S(=O)(=O)F)c2)c(Cl)c1 = 491 nM
• Nc1c(C(=O)Nc2ccccn2)sc2nc3c(cc12)CCCCCC3 = 2970 nM
• COc1ccc(C(=O)/C=C/c2ccc(OCc3ccccc3)c(OC)c2)cc1OC = 2840 nM
• Cc1ccc(O)cc1Nc1ccnc2cc(-c3ccccn3)ccc12 = 2260 nM

Would you be so kind as to report GI50 for each listed record?
1. O=C1c2ccccc2-c2c1c1ccc([N+](=O)[O-])cc1c(=O)n2CCCCl
2. Cc1ccc(NC(=O)c2ccc(NC3=C(Cl)C(=O)N(Cc4ccccc4)C3=O)cc2)cc1Cl
3. O=C(Nc1cccc(-n2cc(-c3ccncc3)c(-c3ccc(O)c(Cl)c3)n2)c1)Nc1ccc(Cl)c(Cl)c1
4. CCN(CC)Cc1cc(Nc2cc(C(F)(F)F)c(C#N)c3nc4ccccc4n23)ccc1O
5. CN(c1ccc(NC(=O)NCCN2CCOCC2)cc1)c1ccnc(Nc2ccc(CS(C)(=O)=O)cc2)n1

1: 3240 nM; 2: 3000 nM; 3: 1380 nM; 4: 2330 nM; 5: > 25000 nM

----------
Kindly state TGI for each of the entries shown.
# Test system: OVCAR-5 ovarian
# ASSAY DETAILS: NCI tumour cell line growth inhibition, 48 h

Look over these answered cases.
- COc1cccc(/C=C2/S/C(=N/Nc3nc(C)c(C(C)=O)s3)NC2=O)c1O: 94.2 µM
- O=S(=O)(O)c1ccc2c(N=Nc3c(O)ccc4ccccc34)cccc2c1: > 100 µM
- CN1CC[C@]23c4c5ccc(O)c4OC2c2[nH]ncc2C[C@H]3[C@H]1C5 (some centres undefined): > 100 µM
- COC(=O)C1(Cc2ccccc2)Cc2c(C)ccc(C)c2C1=O (centres undefined): > 100 µM
- Cc1ccc(-c2nc(C(Cl)Cl)nc3cc(C)nn23)cc1: 6.72 µM

Would you be so kind as to report TGI for each listed record?
1. Nc1n[nH]c2ccc([C@@H]3Nc4c(F)cc5[nH]ncc5c4[C@H]4C5CCC(C5)[C@@H]34)cc12 (some centres undefined)
2. O=c1[nH]nc(Cc2ccccc2)n1C1CC1

> 55.7 µM
> 100 µM

Would you be so kind as to report TGI for each listed record?
1. Cc1ccc(NC2=CC(=O)C(=O)c3ccccc32)c(C)c1
2. Nc1nc(-c2ccccc2)cc(-c2cc(Cl)ccc2O)n1
3. O/N=C1\CSc2ccccc2C1
4. CC(C)=CC(=O)CC(=O)C(=O)NCCNC(=O)C(=O)CC(=O)C=C(C)C

["21.6 µM", "> 100 µM", "> 100 µM", "> 50 µM"]

----------
# Tested on: NCI-H460 lung
# ASSAY DETAILS: NCI tumour cell line growth inhibition, 48 h
Kindly state TGI for each of the entries shown.
One number for each entry, in µM.

Look over these answered cases.
• CCN(CC)Cc1cc(Nc2cc(C(F)(F)F)c(C#N)c3nc4ccccc4n23)ccc1O = 10.7
• COc1ccc(C(=O)/C=C/c2ccc(OCc3ccccc3)c(OC)c2)cc1OC = 14.4
• O=C1CC(=O)NC(=NN2C(=O)/C(=C/c3ccc(Cl)cc3)N=C2c2ccccc2)N1 = 22.9
• Cc1ccc(NC2=CC(=O)C(=O)c3ccccc32)c(C)c1 = 7.68

The reported TGI value, NCI-H460 lung, for CC(C)=NNc1ncnc2nc[nH]c12 reads 38.9

----------
# Test system: NCI-H522 lung
# ASSAY DETAILS: NCI tumour cell line growth inhibition, 48 h
# label = YES if TGI >= 4 µM else NO

Worked examples follow.
- Cc1ccccc1CNc1c2ccccc2nc2ccccc12: YES
- COC(=O)[C@]1(C)[C@H]2C[C@H]3O[C@H]4[C@H](O)[C@@H](O)OC(CC(O)C(C5=CC(=O)OC5)C(C5=CC(=O)OC5)C(O)CC56CCCCC7[C@@H](C)[C@H](C[C@H]8[C@](C)(C(=O)OC)[C@H](O)CC[C@]78C)O[C@H]([C@@H](O)[C@H](O)O5)[C@H]6O)(CCCCC([C@@H]3C)[C@]2(C)CC[C@@H]1O)[C@H]4O (some centres not stated): NO
- C1=C(c2ccccc2)C(OC2Oc3ccccc3C=C2c2ccccc2)Oc2ccccc21 (configuration not stated): YES
- Cc1cc2c(cc1C)[n+](=O)c(C(=O)/C=C/c1ccccc1[N+](=O)[O-])c(C)n2[O-]: YES

Is reported TGI greater than or equal to 4 µM here: Nc1n[nH]c2ccc([C@@H]3Nc4c(F)cc5[nH]ncc5c4[C@H]4C5CCC(C5)[C@@H]34)cc12 (some centres not stated)
NO

Is reported TGI greater than or equal to 4 µM here: COC1(c2ccccc2)NC(=S)NN=C1c1ccccc1 (configuration not stated)
YES

Is reported TGI greater than or equal to 4 µM here: CSC1(Cc2ccccn2)C(=O)Nc2cccc([N+](=O)[O-])c21 (configuration not stated)
YES

----------
# Tested on: HCC-2998 colon
# ASSAY DETAILS: NCI tumour cell line growth inhibition, 48 h
ENDPOINT LABEL: TGI

Look over these answered cases.
* CSc1nc(C)c(CCOC(C)=O)c(N=P(c2ccccc2)(c2ccccc2)c2ccccc2)n1 | > 10 µM
* CC(C)=CC(=O)CC(=O)C(=O)NCCNC(=O)C(=O)CC(=O)C=C(C)C | > 50 µM
* Cc1cc(C)c(S(=O)(=O)N(CCCN)OCCCN)c(C)c1 | > 100 µM
* CCOC(=O)[C@@H]1C[C@@H]1c1ccc(O)c(O)c1 | 67.7 µM
* Clc1ccc(-c2nnc(-c3nsc4ccccc34)o2)cc1 | 93.7 µM

Would you be so kind as to report TGI for each listed record?
1. COc1cccc(-c2[nH]c3cc4c(cc3c(=O)c2C(=O)O)OCO4)c1
2. CSC1(Cc2ccccn2)C(=O)Nc2cccc([N+](=O)[O-])c21 (stereo unspecified)
3. CON(C)C(=O)C(C)NC(=O)OC(C)(C)C (stereo unspecified)
4. CC1=NN(C(=O)c2ccc(C)cc2)C(=O)C1N=Nc1ccccc1C(=O)O (stereo unspecified)

1: 74.6 µM; 2: > 100 µM; 3: > 100 µM; 4: > 100 µM

Would you be so kind as to report TGI for each listed record?
1. O=C(O)c1ccccc1CC(Cc1ccccc1)C(=O)O (stereo unspecified)
2. COC(=O)C1(Cc2ccccc2)Cc2c(C)ccc(C)c2C1=O (stereo unspecified)

> 100 µM
97.7 µM
